Assay: Cytotoxicity against L-1210 cells
Assay type: cell-based, L1210
Details: mouse, read-out: ED50 (the source's name)
Listing of recorded CC50 by entry.

Input: Tell me CC50 reported for CC(OC(=O)C(Cc1ccc(N(CCCl)CCCl)cc1)NC=O)c1cc(O)c2c(c1O)C(=O)c1ccccc1C2=O (configuration not stated)
Output: 0.12 µg/mL

Input: Annotate the compound N[C@@H](Cc1ccc(N(CCCl)CCCl)cc1)C(=O)O with its measured CC50.
Output: 0.89 µg/mL

Input: Kindly indicate its recorded CC50. Item: CCCCCCC(O)c1cc(O)c2c(c1O)C(=O)c1ccccc1C2=O (configuration not stated)
Output: 60 µg/mL

Input: Read off the recorded CC50 for CCC(O)c1cc(O)c2c(c1O)C(=O)c1ccccc1C2=O (configuration not stated)
Output: 7.2 µg/mL

Input: Give the value of CC50 reported for the following: CCCCCCCC(O)c1cc(O)c2c(c1O)C(=O)c1ccccc1C2=O (configuration not stated)
Output: 80 µg/mL

Input: Provide one value: measured CC50 of CCCCCCC(OC(=O)C(Cc1ccc(N(CCCl)CCCl)cc1)NC=O)c1cc(O)c2c(c1O)C(=O)c1ccccc1C2=O (configuration not stated)
Output: 4.5 µg/mL

Input: Give a short answer stating reported CC50 for CCCC(O)c1cc(O)c2c(c1O)C(=O)c1ccccc1C2=O (configuration not stated) .
Output: 10.2 µg/mL

Input: Recall and state the measured CC50 for O=C1c2ccccc2C(=O)c2c(O)c(CO)cc(O)c21 .
Output: 15 µg/mL

Input: Query CC50 for O=CNC(Cc1ccc(N(CCCl)CCCl)cc1)C(=O)OCc1cc(O)c2c(c1O)C(=O)c1ccccc1C2=O (configuration not stated)
Output: 0.086 µg/mL

Input: Respond only with CC50 recorded for CCCCCC(O)c1cc(O)c2c(c1O)C(=O)c1ccccc1C2=O (configuration not stated)
Output: 58 µg/mL

Input: Look up CC50 of CCCCC(O)c1cc(O)c2c(c1O)C(=O)c1ccccc1C2=O (configuration not stated) and report it.
Output: 23.7 µg/mL

Input: For the compound CC(O)c1cc(O)c2c(c1O)C(=O)c1ccccc1C2=O (configuration not stated) , give its reported CC50.
Output: 1.9 µg/mL

Input: Answer with the recorded CC50 of CCCCCCCC(OC(=O)C(Cc1ccc(N(CCCl)CCCl)cc1)NC=O)c1cc(O)c2c(c1O)C(=O)c1ccccc1C2=O (configuration not stated) only.
Output: 5.9 µg/mL

Input: State, in one line, measured CC50 of CCC(OC(=O)C(Cc1ccc(N(CCCl)CCCl)cc1)NC=O)c1cc(O)c2c(c1O)C(=O)c1ccccc1C2=O (configuration not stated)
Output: 0.2 µg/mL

Input: Report CC50, nothing else, for this compound: CCCCCC(OC(=O)C(Cc1ccc(N(CCCl)CCCl)cc1)NC=O)c1cc(O)c2c(c1O)C(=O)c1ccccc1C2=O (configuration not stated)
Output: 3.1 µg/mL

Input: Please give the documented CC50 of CCCC(OC(=O)C(Cc1ccc(N(CCCl)CCCl)cc1)NC=O)c1cc(O)c2c(c1O)C(=O)c1ccccc1C2=O (configuration not stated)
Output: 0.97 µg/mL

Input: Give a short answer stating reported CC50 for CCCCC(OC(=O)C(Cc1ccc(N(CCCl)CCCl)cc1)NC=O)c1cc(O)c2c(c1O)C(=O)c1ccccc1C2=O (configuration not stated) .
Output: 0.4 µg/mL

The values you see were collected from ChEMBL document CHEMBL1134090.
